- Target or test system: Oxysterols receptor LXR-beta (Homo sapiens)
- Assay procedure: LXR agonists, Gal4 luciferase reporter, confirmation, counter-screen for hcDAF-12 agonist project, cell-based, luminescence, HEK293, H. contortus campaign (AID 743027)
- Assay conditions: HEK293 Gal4-LXR tk-luc reporter, 24 h, at 6.8 µM, hits give high values, normalized: DMSO 0%, positive control 100%
Some of the results follow.
Observation type: activation (%)
Provide only the numeric value, understood in %.

Ask | Identify the reported activation for the following entry. COc1ccccc1NC(=O)c1ccc(C)s1
Reply | 0.6

Ask | Hello, please tell me recorded activation for this one: COc1ccc(-c2cn3ccc(C)cc3n2)cc1
Reply | 1.71

Ask | Give a short answer stating reported activation for O=C(O)CN1c2cccc3cccc(c23)S1(=O)=O .
Reply | -0.29

Ask | Assign activation to the following record: Cc1cc(N=Nc2ccc3ccccc3c2)ccc1O
Reply | 1.85

###

- Assay procedure: VP16 transactivation inhibitors, counter-screen for SRC1 inhibitor project, cell-based, luminescence, high throughput (AID 588824)
- Assay conditions: cell-based VP16 transactivation luciferase luminescence; at 3.6 µM; hits give high values
Observation type: inhibition (%)
Use % as the unit, but write only the number.

Before answering, review these 2 worked examples.
CC(=O)Nc1ccc(Nc2c3ccccc3nc3ccccc23)cc1 ... 39.4
O=C(CCC(=O)Nc1ccc(Br)cc1)N/N=C/c1ccccc1O ... 22.2

Query compound follows.
Ask | Please report inhibition for the following compound: CC1(C)CC(N2CCN(C(c3ccccc3)c3ccccc3)CC2)=CC(=[N+]2CCCCC2)C1
Reply | 87.8

###

- Target or test system: Nuclear receptor coactivator 3 (Homo sapiens)
- Assay procedure: SRC3 coactivator transcriptional activity inhibitors, confirmation, cell-based, luminescence, quadruplicate (AID 588792);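 further: 0% = DMSO treated cells and 100% = gossypol at 36 µM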
- Assay conditions: HEK293 GAL4-SRC3 luciferase reporter, at 3.6 µM
The source made the active and inactive calls.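 The calls were made as follows: active = mean inhibition over 43.08%, the solvent-only control mean plus 3 SD; inactive = the rest.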
Respond using exactly one of the listed classes: active, inactive

Ask | Returns: the outcome recorded for COc1cc(/C=C2\SC(=S)N(CCC(=O)NC3CCCC3)C2=O)cc(OC)c1OC in this assay.
Reply | inactive

Ask | What is the recorded call for this molecule in the test? CCn1cc(C(=O)NCc2ccco2)c(=O)c2cc(S(=O)(=O)N3CCCCCC3)ccc21
Reply | inactive

Ask | For Cc1nc2c(-c3ccc(F)cc3)cnn2c(N)c1-c1ccccc1 , what call appears in the results of this test?
Reply | active

Ask | Any idea what this test logged for COc1ccccc1C(=O)Nc1nc(-c2ccc(S(=O)(=O)N3CCOCC3)cc2)cs1 ?
Reply | active

Ask | # outcome recorded in this test, key = O=[N+]([O-])c1nn(-c2ccc3c(c2)OCCO3)n(O)c1=Nc1ccccc1
Reply | active

Ask | Identify the outcome logged in this assay for the molecule shown: O=C(NCc1ccc(Cl)cc1)c1cccc(NC(=O)c2ccccc2)c1
Reply | inactive

Ask | Outcome? CCn1nc([N+](=O)[O-])c(C(C#N)c2nc3cc(C(F)(F)F)ccc3s2)c(Cl)c1=O (stereo not given)
Reply | inactive

Ask | Tell me the assay call for CCCCCCCN(c1ccccc1)[C@@H]1C[C@H]2CCCC(=O)N3CC[C@@H](C1)[C@@H]23 please.
Reply | inactive

Ask | // outcome(item) with item = CC(=O)c1c(C)[nH]c(C(=O)Nc2ccc(Cl)c(S(=O)(=O)N3CCOCC3)c2)c1C
Reply | inactive

Ask | Short answer needed: outcome of this test for C/C(=N\Nc1ccc2nncn2n1)c1ccccn1 ?
Reply | active

Ask | What call does the record list for Cc1ccc2occ(/C=N/NC(=O)[C@@H](N)Cc3ccccc3)c(=O)c2c1 ?
Reply | inactive

Ask | # lookup: test call for CC(C)Cn1c(N)c(C(=O)CSc2ccc3c(c2)OCCO3)c(=O)n(C)c1=O
Reply | inactive

Ask | GET /call?item= COc1ccc(CCNC(=O)COC(=O)Cc2cccc3ccccc23)cc1 returns the recorded outcome of this test.
Reply | inactive

Ask | Name the outcome recorded for COc1cccc(Cn2c(NCc3cccnc3)nc3c2c(=O)n(C)c(=O)n3C)c1 in the assay.
Reply | active

###

- Target or test system: Nuclear receptor coactivator 1 (Homo sapiens) (UniProt Q15788)
- Sequence (Q15788 whole entry, looked up): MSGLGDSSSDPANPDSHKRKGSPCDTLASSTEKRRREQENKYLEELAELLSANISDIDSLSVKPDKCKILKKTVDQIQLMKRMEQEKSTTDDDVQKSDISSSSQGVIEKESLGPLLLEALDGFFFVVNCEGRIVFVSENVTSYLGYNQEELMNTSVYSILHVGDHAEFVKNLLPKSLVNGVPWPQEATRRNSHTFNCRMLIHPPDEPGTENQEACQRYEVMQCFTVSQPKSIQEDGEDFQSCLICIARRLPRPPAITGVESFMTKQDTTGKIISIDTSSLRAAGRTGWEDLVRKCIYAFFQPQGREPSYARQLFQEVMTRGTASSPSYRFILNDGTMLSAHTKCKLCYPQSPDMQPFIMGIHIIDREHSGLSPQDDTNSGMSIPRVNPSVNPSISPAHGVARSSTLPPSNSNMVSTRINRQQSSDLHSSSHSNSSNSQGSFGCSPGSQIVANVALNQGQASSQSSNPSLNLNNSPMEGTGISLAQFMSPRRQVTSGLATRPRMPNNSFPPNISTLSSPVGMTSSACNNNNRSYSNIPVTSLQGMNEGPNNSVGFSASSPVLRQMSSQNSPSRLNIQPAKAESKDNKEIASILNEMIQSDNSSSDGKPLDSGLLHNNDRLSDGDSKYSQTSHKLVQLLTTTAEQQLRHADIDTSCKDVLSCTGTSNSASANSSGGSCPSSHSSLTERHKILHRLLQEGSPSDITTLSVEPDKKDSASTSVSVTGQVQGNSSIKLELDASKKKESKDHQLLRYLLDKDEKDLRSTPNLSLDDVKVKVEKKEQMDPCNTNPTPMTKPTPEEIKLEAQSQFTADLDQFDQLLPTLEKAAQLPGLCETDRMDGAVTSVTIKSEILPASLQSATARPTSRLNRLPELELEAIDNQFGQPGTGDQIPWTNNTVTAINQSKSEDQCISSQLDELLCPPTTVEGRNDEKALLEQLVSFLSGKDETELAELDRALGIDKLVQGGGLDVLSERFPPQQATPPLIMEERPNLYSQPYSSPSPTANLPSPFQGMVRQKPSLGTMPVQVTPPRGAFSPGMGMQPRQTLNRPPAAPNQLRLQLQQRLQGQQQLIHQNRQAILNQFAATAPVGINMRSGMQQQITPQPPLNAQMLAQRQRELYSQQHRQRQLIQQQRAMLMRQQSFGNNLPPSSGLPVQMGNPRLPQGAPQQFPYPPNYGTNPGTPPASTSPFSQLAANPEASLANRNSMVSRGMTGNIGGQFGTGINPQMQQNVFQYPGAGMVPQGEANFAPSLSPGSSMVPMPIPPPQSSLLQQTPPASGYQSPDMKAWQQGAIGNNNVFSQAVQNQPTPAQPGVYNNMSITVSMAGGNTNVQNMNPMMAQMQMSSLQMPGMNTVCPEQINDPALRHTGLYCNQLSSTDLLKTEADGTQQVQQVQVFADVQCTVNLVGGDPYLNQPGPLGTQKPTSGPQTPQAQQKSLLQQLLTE
- Assay procedure: SRC1 coactivator transcriptional activity inhibitors, confirmation, cell-based, luminescence, quadruplicate (AID 588820);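 further: 0% = DMSO wells and 100% = gossypol 36 µM treated wells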
- Assay conditions: HEK293 GAL4-SRC1 luciferase reporter, at 3.6 µM, hits give high values
Overview of recorded inhibition for various molecules
Kindly answer with a numeric value in %, unit omitted.

CCc1ccc(CN(C)C(=O)C2CCC(=O)N(CC3CCCCC3)C2)cc1 (stereo unspecified) ... -5.12
CCN(C(=O)c1cccc(S(=O)(=O)N(C)C)c1)C12CC3CC(CC(C3)C1)C2 ... 14.8
Cc1onc(-c2ccccc2)c1C(=O)NC(=S)NNC(=O)c1ccccc1O ... 66.5
COc1cccc(C(c2c(NC(=O)c3ccco3)sc(C)c2C)N2CCOCC2)c1 (stereo unspecified) ... -6.24

Ask | Input COCCn1c(C)cc(C(=O)COC(=O)c2ccccc2Br)c1C , output reported inhibition.
Reply | 46.2

Ask | Identify inhibition associated with the molecule COc1cc(OC)c(OC)cc1/C=C1\CC(C)C/C(=C\c2cc(OC)c(OC)cc2OC)C1=O (stereo unspecified)
Reply | -33.6

###

- System: transactivating tegument protein VP16 (Human herpesvirus 1)
- Assay procedure: VP16 transactivation reporter inhibitors, counter-screen for SRC2 inhibitor project, cell-based, luminescence, single concentration (AID 652007)
- Assay conditions: cell-based VP16 transactivation luciferase reporter, at 8.9 µM, hits give high values
Observation type: inhibition (%)
Enter your answer as a number in %; do not include the unit.

N#CC1CCCc2c1[nH]c1ccc([N+](=O)[O-])cc21 (stereo unspecified) ... -27
COc1ccc(CCNc2ncnc3sc(C)cc23)cc1OC ... 16.6
COc1cc2[nH]c(=O)n(CCCCCC(=O)NCCCN3CCCC3=O)c(=O)c2cc1OC ... 7.78
CCC(=O)c1ccc(O)c(CC=C(C)C)c1 ... -16.9
Cc1ccc(S(=O)(=O)NNC(=O)c2sc(=S)n(C)c2C)cc1 ... -4.43

Switching to the query record.
Ask | State inhibition (transactivating tegument protein VP16 (Human herpesvirus 1)) of COc1cc(SC)ccc1C(=O)Nc1nc2ccccc2[nH]1 .
Reply | 96.4

###

Parameter inhibition: see the listing below.
- Target or test system: Photoreceptor-specific nuclear receptor (Homo sapiens) (UniProt Q9Y5X4)
- Sequence (Q9Y5X4 whole entry, looked up): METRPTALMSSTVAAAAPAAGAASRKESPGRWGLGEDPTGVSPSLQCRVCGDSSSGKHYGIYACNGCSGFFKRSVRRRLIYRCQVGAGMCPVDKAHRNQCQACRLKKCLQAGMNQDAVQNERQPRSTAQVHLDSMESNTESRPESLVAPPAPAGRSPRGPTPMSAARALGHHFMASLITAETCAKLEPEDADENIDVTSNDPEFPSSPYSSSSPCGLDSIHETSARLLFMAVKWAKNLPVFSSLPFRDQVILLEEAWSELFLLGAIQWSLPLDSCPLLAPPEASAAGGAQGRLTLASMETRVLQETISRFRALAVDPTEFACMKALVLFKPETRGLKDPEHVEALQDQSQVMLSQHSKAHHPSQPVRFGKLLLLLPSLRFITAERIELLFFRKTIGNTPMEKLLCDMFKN
- Assay procedure: NR2E3 agonist confirmation in cells, cell-based, luminescence, CHO-S two-hybrid (AID 624378);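 further: 0% = DMSO in NR2E3 cells and 100% = DMSO in cells lacking NR2E3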
- Assay conditions: CHO-S mammalian two-hybrid NR2E3-NCOR, luciferase luminescence; at 3.98 µM; hits give high values
The list shows a part of the results.
State just the number; it will be interpreted in %.

COc1ccc(Nc2ncnc3ccc(Br)cc23)c(OC)c1 ... 85.3
COc1ccc(NS(=O)(=O)c2ccc(Oc3c(C#N)cccc3C#N)cc2)cc1 ... 94.9
O=S(=O)(c1cccc(Cn2nnc(-c3ccc(F)cc3)n2)c1)N1CCOCC1 ... 34.9
COc1cc(NC(=O)c2ccccc2NS(=O)(=O)c2ccc(Cl)s2)cc(OC)c1 ... 99.6
COc1cccc(/C=N/Nc2ncc(C(F)(F)F)cc2Cl)c1O ... 83

Next, consider the following compound.
Ask | Fill in reported inhibition for this entry: CN(Cc1cn(Cc2ccc(C(F)(F)F)cc2)nn1)C1CN(Cc2cn(Cc3ccc(C(F)(F)F)cc3)nn2)S(=O)(=O)C1 (stereo unspecified)
Reply | 86.8

###

- Assay procedure: GAL4-VP16 reporter modulators, confirmation, counter-screen for NR2E3 agonist project, cell-based, luminescence, CHO-S, high throughput (AID 624379);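 further: luciferase from a UAS reporter driven by GAL4-VP16 transactivation; 0% = DMSO with VP16-transfected cells and 100% = DMSO with cells lacking VP16; higher means less reporter light so more repression of VP16 activity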
- Assay conditions: CHO-S GAL4-VP16 luciferase reporter, at 3.98 µM, hits give high values
The list shows a part of the results.
Observation type: inhibition (%)
// return numeric value only (unit: %, not printed)

// below: answered compounds
OC(c1ccc(Cl)cc1)c1ncc(-c2ccc(Cl)cc2)[nH]1 (stereo not drawn) ... 58.9
N#Cc1c(-c2ccccc2)nc(SCc2cccc(C(F)(F)F)c2)[nH]c1=O ... 30.9

# context switch: different compound, same inhibition
Ask | Answer with the recorded inhibition for the compound listed here: COc1cccc(CNc2nc(NCc3ccccc3OC)nc3ccsc23)c1
Reply | 61.6

###

Each entry below lists one item and its recorded inhibition value.
- Assay procedure: VP16 transactivation inhibitors, counter-screen for SRC1 inhibitor project, cell-based, luminescence, high throughput (AID 588824)
- Assay conditions: cell-based VP16 transactivation luciferase luminescence; at 3.6 µM; hits give high values
Report as a plain number; the unit % is understood.

Here are 2 compounds together with their reported answers.
CCOC(=O)C(=Cc1ccccc1OC)C(=O)OCC ... 22.2
Cc1c(C(C)NC(=O)c2cc(COc3cccc4cnccc34)on2)cnn1C (stereo not drawn) ... 33.8

--- query ---
Ask | Answer with reported inhibition of Cc1ccc(-c2nnc(SCC(=O)Nc3ccccc3F)o2)cc1
Reply | 26.2
